Listing: log10 IC50 of selected compounds
Measured On: TARP γ8 dependent AMPA receptor (GluA1o-g8 fusion channel) (Homo sapiens (Human), UniProt P42261+Q8WXS5)
Sequence (P42261 other isoform, or with tags, fused parts or gaps): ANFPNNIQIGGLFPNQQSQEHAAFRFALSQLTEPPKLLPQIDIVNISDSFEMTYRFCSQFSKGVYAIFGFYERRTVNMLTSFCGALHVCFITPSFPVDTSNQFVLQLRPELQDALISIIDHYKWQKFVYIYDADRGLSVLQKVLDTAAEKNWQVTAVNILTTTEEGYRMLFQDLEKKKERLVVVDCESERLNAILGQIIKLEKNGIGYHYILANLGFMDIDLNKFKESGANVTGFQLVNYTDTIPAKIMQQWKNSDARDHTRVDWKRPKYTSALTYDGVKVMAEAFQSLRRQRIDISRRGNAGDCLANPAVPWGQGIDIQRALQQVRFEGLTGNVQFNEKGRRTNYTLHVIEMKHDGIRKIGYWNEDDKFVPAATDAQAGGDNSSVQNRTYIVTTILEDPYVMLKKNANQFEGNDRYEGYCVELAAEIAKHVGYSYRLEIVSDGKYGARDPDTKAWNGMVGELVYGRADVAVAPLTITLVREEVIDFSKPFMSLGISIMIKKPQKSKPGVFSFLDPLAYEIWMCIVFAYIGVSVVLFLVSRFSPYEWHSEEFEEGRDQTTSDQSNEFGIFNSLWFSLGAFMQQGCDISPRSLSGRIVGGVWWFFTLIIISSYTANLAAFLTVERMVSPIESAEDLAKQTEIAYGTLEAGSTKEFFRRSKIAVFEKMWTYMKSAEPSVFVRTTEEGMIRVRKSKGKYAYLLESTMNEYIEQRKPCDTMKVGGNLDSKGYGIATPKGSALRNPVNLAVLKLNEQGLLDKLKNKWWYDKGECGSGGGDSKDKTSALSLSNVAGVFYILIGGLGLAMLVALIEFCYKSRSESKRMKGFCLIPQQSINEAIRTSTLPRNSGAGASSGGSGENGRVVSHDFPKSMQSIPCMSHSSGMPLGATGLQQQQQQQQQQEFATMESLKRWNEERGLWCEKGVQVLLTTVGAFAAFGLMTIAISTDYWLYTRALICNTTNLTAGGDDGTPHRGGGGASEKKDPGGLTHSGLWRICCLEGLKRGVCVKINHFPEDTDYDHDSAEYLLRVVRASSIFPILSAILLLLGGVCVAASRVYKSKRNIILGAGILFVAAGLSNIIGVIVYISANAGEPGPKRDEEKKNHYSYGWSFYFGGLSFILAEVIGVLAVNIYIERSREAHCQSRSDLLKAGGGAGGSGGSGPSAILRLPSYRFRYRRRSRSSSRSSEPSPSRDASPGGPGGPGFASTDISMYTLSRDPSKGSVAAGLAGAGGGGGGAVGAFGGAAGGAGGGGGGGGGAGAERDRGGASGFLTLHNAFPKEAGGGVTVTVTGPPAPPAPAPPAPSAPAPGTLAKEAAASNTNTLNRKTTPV
Assay Remarks: Calcium flux assay (FLIPR), HEK293 cells expressing GRIA1o-CACNG8 fusion
Assay type: cell-based
Details: inhibition of calcium flux after 15 μM glutamate, read-out: GluR1-γ8 pIC50 (converted)
Reminder: these figures are log10 of reported IC50, in nM before transformation.

Here's what some known entries look like.
In [3]: df
Out[3]:
                                   compound  readout_value
0  O=c1[nH]c2ccc(-c3cccc(CN4CCOCC4)c3Cl)cc2[nH]1 [Example 141]           3.00
1  O=c1[nH]c2ccc(-c3cccc(OC(F)F)c3Cl)cc2[nH]1 [Example 113]           1.90
2  CC(C)Oc1cccc(C(F)(F)F)c1-c1ccc2[nH]c(=O)[nH]c2c1 [Example 108]           1.90

Exercise: Returns the measured log10 IC50 for the input compound. Input: CC(C)Oc1cccc(-c2ccc3[nH]c(=O)[nH]c3c2)c1Cl [Example 110]
Solution: 1.50

Exercise: Ok, now C[C@@H](Oc1cccc(Cl)c1-c1ccc2[nH]c(=O)[nH]c2c1)C(F)(F)F (single isomer, unassigned) [Example 119]
Solution: 1.70

* * *

Measured On: TARP γ8 dependent AMPA receptor (GluA1o-g8 fusion channel) (Homo sapiens (Human), UniProt P42261+Q8WXS5)
Assay Remarks: Calcium flux assay (FLIPR), HEK293 cells expressing GRIA1o-CACNG8 fusion
Format: cell-based
Details: inhibition of calcium flux after 15 μM glutamate, read-out: GluR1-γ8 pIC50 (converted)
Entries whose IC50 is below 200 nM take criterion met; entries at or above 200 nM take criterion not met.

// known answers, use as guide
In [3]: df
Out[3]:
                                   molecule           category
0  COc1cccc(OCC(F)F)c1-c1ccc2[nH]c(=O)[nH]c2c1 [Example 102]  criterion not met
1  O=c1[nH]c2ccc(-c3cccc(Cl)c3OC(F)(F)F)cc2[nH]1 [Example 29]      criterion met
2  O=c1[nH]c2ccc(-c3c(Cl)cc(F)cc3Cl)cc2[nH]1 [Example 50]      criterion met

Exercise: State whether 200 nM exceeds IC50 recorded for N#CCOc1cccc(Cl)c1-c1ccc2[nH]c(=O)[nH]c2c1 [Example 97] .
Solution: criterion not met

* * *

Listing: log10 of IC50 of selected molecules
Measured On: TARP γ8 dependent AMPA receptor (GluA1o-g8 fusion channel) (Homo sapiens (Human), UniProt P42261+Q8WXS5)
Assay Remarks: Calcium flux assay (FLIPR), HEK293 cells expressing GRIA1o-CACNG8 fusion
Type: cell-based
Details: inhibition of calcium flux after 15 μM glutamate, read-out: GluR1-γ8 pIC50 (converted)
Reminder: these figures are log10 of reported IC50, in µM before transformation.

Here's what some known entries look like.
>>> print(df.to_string())
                                   molecule  readout_value
0  Cc1c(-c2ccc3[nH]c(=O)[nH]c3c2)cccc1-c1nnc(C(F)(F)F)o1 [Example 198]          -1.70
1  COc1cccc(C)c1-c1ccc2[nH]c(=O)[nH]c2c1 [Example 55]          -0.10
2  O=c1[nH]c2ccc(-c3c(Cl)cccc3Oc3cncs3)cc2[nH]1 [Example 101]          -0.50

Exercise: Returns the measured log10 of IC50 for the input molecule. Input: CC(C)Oc1cccc(Cl)c1-c1ccc2[nH]c(=O)[nH]c2c1 [Example 91]
Solution: -1.10

Exercise: Ok, now N#CCc1ccc(Cl)c(-c2ccc3[nH]c(=O)[nH]c3c2)c1Cl [Example 131]
Solution: 0.30

* * *

Measured On: TARP γ8 dependent AMPA receptor (GluA1o-g8 fusion channel) (Homo sapiens (Human), UniProt P42261+Q8WXS5)
Assay Remarks: Calcium flux assay (FLIPR), HEK293 cells expressing GRIA1o-CACNG8 fusion
Format: cell-based
Details: inhibition of calcium flux after 15 μM glutamate, read-out: GluR1-γ8 pIC50 (converted)
Listing: log10 of IC50 of selected compounds
Reminder: these figures are log10 of reported IC50, in nM before transformation.

Here's what some known entries look like.
In [3]: df
Out[3]:
                                 smiles_str  readout_value
0  O=c1[nH]c2ccc(-c3cccc(-c4nnco4)c3Br)cc2[nH]1           2.40
1  O=c1[nH]c2ccc(-c3cccc(OC4CC4)c3Cl)cc2[nH]1           1.60
2  Cc1c(CN2CCOC(C)(C)C2)cccc1-c1ccc2[nH]c(=O)[nH]c2c1           1.30
3  N#CCc1cccc(-c2ccccc2F)c1-c1ccc2[nH]c(=O)[nH]c2c1           2.20

Exercise: Returns the measured log10 of IC50 for the input compound. Input: Cc1ccc(Cl)c(-c2ccc3[nH]c(=O)[nH]c3c2)c1
Solution: 2.30

Exercise: Ok, now O=c1[nH]c2ccc(-c3c(F)cccc3F)cc2[nH]1
Solution: 3.00

Exercise: Ok, now O=c1[nH]c2ccc(-c3ccccc3Cl)cc2[nH]1
Solution: 2.80

Exercise: Ok, now O=c1[nH]c2ccc(-c3c(Cl)cccc3-c3cncc(C(F)(F)F)c3)cc2[nH]1
Solution: 2.40

Exercise: Ok, now COc1cccc(OC(C)C)c1-c1ccc2[nH]c(=O)[nH]c2c1
Solution: 1.90

* * *

Measured On: TARP γ8 dependent AMPA receptor (GluA1o-g8 fusion channel) (Homo sapiens (Human), UniProt P42261+Q8WXS5)
Assay Remarks: Calcium flux assay (FLIPR), HEK293 cells expressing GRIA1o-CACNG8 fusion
Format: cell-based
Details: inhibition of calcium flux after 15 μM glutamate, read-out: GluR1-γ8 pIC50 (converted)
Text: This assay was used to test compounds for their ability to inhibit TARP γ8 dependent AMPA receptor activity. An in vitro assay was used to determine the potency of test compounds as inhibitors of the glutamate response of the channel formed by GluA1o-g8. To ensure a 1:1 stoichiometry of GluA1o and g8 subunits in the expressed channel, a fusion of the cDNAs for GRIA1o and CACNG8 was used. […] The fluorescence in each well was normalized to the fluorescence of negative and positive control wells. […]
So basically every entry gets a class from its IC50, ranges being low end: < 100 nM; middle: ≥ 100 nM and < 800 nM; high end: ≥ 800 nM

Exercise: Any idea which band O=c1[nH]c2ccc(-c3cc(C(F)(F)F)ccc3Cl)cc2[nH]1 [Example 25] is in?
Solution: middle

Exercise: Ok, now Cc1cccc(C(F)(F)F)c1-c1ccc2[nH]c(=O)[nH]c2c1 [Example 57]
Solution: middle

Exercise: Ok, now O=c1[nH]c2ccc(-c3c(Cl)cccc3-c3cncc(F)c3)cc2[nH]1 [Example 166]
Solution: low end

Exercise: Ok, now C=Cc1cccc(Cl)c1-c1ccc2[nH]c(=O)[nH]c2c1 [Example 161]
Solution: low end

Exercise: Ok, now Cc1ccc(Cl)cc1-c1ccc2[nH]c(=O)[nH]c2c1 [Example 10]
Solution: middle

Exercise: Ok, now COc1cccc(OCC(C)C)c1-c1ccc2[nH]c(=O)[nH]c2c1 [Example 14]
Solution: low end

Exercise: Ok, now O=C(c1ccc(Cl)c(-c2ccc3[nH]c(=O)[nH]c3c2)c1)N1CCCC1 [Example 84]
Solution: high end

Exercise: Ok, now Cc1c(CN2CCCC2)cccc1-c1ccc2[nH]c(=O)[nH]c2c1 [Example 156]
Solution: high end

* * *

Measured On: TARP γ8 dependent AMPA receptor (GluA1o-g8 fusion channel) (Homo sapiens (Human), UniProt P42261+Q8WXS5)
Assay Remarks: Calcium flux assay (FLIPR), HEK293 cells expressing GRIA1o-CACNG8 fusion
Format: cell-based
Details: inhibition of calcium flux after 15 μM glutamate, read-out: GluR1-γ8 pIC50 (converted)
Readout: IC50 (nM)
// units = nM; emit number, no label

Here's what some known entries look like.
In [3]: df
Out[3]:
                                 smiles_str  readout  unit_spec  readout_value
0  Cc1c(-c2ccc3[nH]c(=O)[nH]c3c2)cccc1-c1nnc(C2CC2)o1     IC50         nM            398
1  N#CC1(c2cccc(Cl)c2-c2ccc3[nH]c(=O)[nH]c3c2)CCC1     IC50         nM            794
2  COC(=O)c1cccc(Cl)c1-c1ccc2[nH]c(=O)[nH]c2c1     IC50         nM            501
3  Cc1c(CN2CC(F)C2)cccc1-c1ccc2[nH]c(=O)[nH]c2c1     IC50         nM           6310

Exercise: Returns the measured IC50 for the input compound. Input: O=c1[nH]c2ccc(-c3c(Cl)ccc(CN4CCCCC4)c3Cl)cc2[nH]1
Solution: 398
